# Tested On: Type-1 angiotensin II receptor (Homo sapiens)
# Sequence (P30556 whole entry): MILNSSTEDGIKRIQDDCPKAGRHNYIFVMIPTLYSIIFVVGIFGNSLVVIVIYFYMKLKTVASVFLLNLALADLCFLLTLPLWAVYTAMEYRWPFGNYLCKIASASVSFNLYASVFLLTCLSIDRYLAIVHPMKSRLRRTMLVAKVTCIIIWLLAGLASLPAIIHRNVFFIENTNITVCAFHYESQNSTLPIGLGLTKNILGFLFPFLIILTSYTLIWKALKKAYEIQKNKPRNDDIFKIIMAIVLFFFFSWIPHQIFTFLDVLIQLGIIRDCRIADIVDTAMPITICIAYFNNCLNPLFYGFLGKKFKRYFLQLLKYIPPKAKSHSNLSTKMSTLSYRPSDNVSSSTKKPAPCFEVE
# Protocol Summary: Displacement of [125I]Sar1 Ile8-Ang 2 from angiotensin 2 AT1 receptor after 180 mins by gamma counting
pIC50: −log10 of the molar value.
Result Type: pIC50

[[record]]
input_smiles = "CCCc1nc2c(C)cc(C(=O)NCCc3ccc(OC)c(OC)c3)cc2n1Cc1ccc(-c2ccccc2C(=O)O)cc1"
tested_on = "Type-1 angiotensin II receptor (Homo sapiens)"
result_type = "pIC50"
measurement = 7.24

[[record]]
input_smiles = "CCCc1nc2c(C)cc(C(=O)NCCc3cccc(OC)c3)cc2n1Cc1ccc(-c2ccccc2C(=O)O)cc1"
tested_on = "Type-1 angiotensin II receptor (Homo sapiens)"
result_type = "pIC50"
measurement = 7.51

[[record]]
input_smiles = "CCCc1nc2c(C)cc(C(=O)NCc3cccc(OC)c3)cc2n1Cc1ccc(-c2ccccc2C(=O)O)cc1"
tested_on = "Type-1 angiotensin II receptor (Homo sapiens)"
result_type = "pIC50"
measurement = 6.49


* * *

# reported IC50; entries follow
Protein target, amino acids: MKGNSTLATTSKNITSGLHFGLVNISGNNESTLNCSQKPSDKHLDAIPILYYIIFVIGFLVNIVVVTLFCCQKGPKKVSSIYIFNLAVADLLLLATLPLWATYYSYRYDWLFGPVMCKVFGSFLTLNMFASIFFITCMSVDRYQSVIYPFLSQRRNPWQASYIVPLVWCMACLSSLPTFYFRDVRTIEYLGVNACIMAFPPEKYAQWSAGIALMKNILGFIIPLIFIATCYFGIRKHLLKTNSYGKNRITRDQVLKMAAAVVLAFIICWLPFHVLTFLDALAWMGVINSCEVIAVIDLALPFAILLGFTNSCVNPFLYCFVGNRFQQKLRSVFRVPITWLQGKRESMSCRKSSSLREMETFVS
Result Type: IC50 (nM)

[[record]]
input_smiles = "CCCc1nc2c(C)cc(C(=O)NCCc3ccc(F)cc3)cc2n1Cc1ccc(-c2ccccc2C(=O)O)cc1"
readout_unit = "nM"
qualifier_operator = "="
measurement = 1300

[[record]]
input_smiles = "CCCc1nc2c(C)cc(C(=O)NCCc3ccc(OC)cc3)cc2n1Cc1ccc(-c2ccccc2C(=O)O)cc1"
readout_unit = "nM"
qualifier_operator = "="
measurement = 1500

[[record]]
input_smiles = "CCCc1nc2c(C)cc(C(=O)NCc3ccccc3OC)cc2n1Cc1ccc(-c2ccccc2C(=O)O)cc1"
readout_unit = "nM"
qualifier_operator = "="
measurement = 1100

[[record]]
input_smiles = "CCCc1nc2c(C)cc(C(=O)NCCc3ccc(OC)c(OC)c3)cc2n1Cc1ccc(-c2ccccc2C(=O)O)cc1"
readout_unit = "nM"
qualifier_operator = "="
measurement = 1200

[[record]]
input_smiles = "CCCc1nc2c(C)cc(C(=O)NCc3cccc(OC)c3)cc2n1Cc1ccc(-c2ccccc2C(=O)O)cc1"
readout_unit = "nM"
qualifier_operator = ">"
measurement = 10000

[[record]]
input_smiles = "CCCc1nc2c(C)cc(C(=O)NCCc3cc(OC)ccc3OC)cc2n1Cc1ccc(-c2ccccc2C(=O)O)cc1"
readout_unit = "nM"
qualifier_operator = "="
measurement = 1400

[[record]]
input_smiles = "CCCc1nc2c(C)cc(C(=O)NCc3ccc(OC)c(OC)c3)cc2n1Cc1ccc(-c2ccccc2C(=O)O)cc1"
readout_unit = "nM"
qualifier_operator = ">"
measurement = 10000

[[record]]
input_smiles = "CCCc1nc2c(C)cc(C(=O)NCc3ccc(OC)cc3)cc2n1Cc1ccc(-c2ccccc2C(=O)O)cc1"
readout_unit = "nM"
qualifier_operator = "="
measurement = 3600

[[record]]
input_smiles = "CCCc1nc2c(C)cc(C(=O)NCCc3cccc(OC)c3)cc2n1Cc1ccc(-c2ccccc2C(=O)O)cc1"
readout_unit = "nM"
qualifier_operator = ">"
measurement = 10000


* * *

# reported EC50 (luminescence inhibition) at 0.25 h; entries follow
# Protocol Summary: Toxicity against Photobacterium phosphoreum T3 mutant assessed as inhibition of luminescence after 15 mins by microtox test
# Type: organism-based
# Condition Label: Photobacterium phosphoreum T3 mutant (luminescent bacteria), read-out: LC50
Result Type: EC50 (luminescence inhibition) at 0.25 h

[[record]]
input_smiles = "CCCc1nc2c(C)cc(C(=O)NCCc3cc(OC)ccc3OC)cc2n1Cc1ccc(-c2ccccc2C(=O)O)cc1"
result_type = "EC50 (luminescence inhibition) at 0.25 h"
measurement = "> 100 µg/mL"

[[record]]
input_smiles = "CCCc1nc2c(C)cc(C(=O)NCc3cccc(OC)c3)cc2n1Cc1ccc(-c2ccccc2C(=O)O)cc1"
result_type = "EC50 (luminescence inhibition) at 0.25 h"
measurement = "> 100 µg/mL"

[[record]]
input_smiles = "CCCc1nc2c(C)cc(C(=O)NCc3ccccc3OC)cc2n1Cc1ccc(-c2ccccc2C(=O)O)cc1"
result_type = "EC50 (luminescence inhibition) at 0.25 h"
measurement = "> 100 µg/mL"

[[record]]
input_smiles = "CCCc1nc2c(C)cc(C(=O)NCc3ccc(OC)cc3)cc2n1Cc1ccc(-c2ccccc2C(=O)O)cc1"
result_type = "EC50 (luminescence inhibition) at 0.25 h"
measurement = "> 100 µg/mL"

[[record]]
input_smiles = "CCCc1nc2c(C)cc(C(=O)NCCc3cccc(OC)c3)cc2n1Cc1ccc(-c2ccccc2C(=O)O)cc1"
result_type = "EC50 (luminescence inhibition) at 0.25 h"
measurement = "72 µg/mL"

[[record]]
input_smiles = "CCCc1nc2c(C)cc(C(=O)NCc3ccc(OC)c(OC)c3)cc2n1Cc1ccc(-c2ccccc2C(=O)O)cc1"
result_type = "EC50 (luminescence inhibition) at 0.25 h"
measurement = "> 100 µg/mL"

[[record]]
input_smiles = "CCCc1nc2c(C)cc(C(=O)NCCc3ccc(F)cc3)cc2n1Cc1ccc(-c2ccccc2C(=O)O)cc1"
result_type = "EC50 (luminescence inhibition) at 0.25 h"
measurement = "89 µg/mL"

[[record]]
input_smiles = "CCCc1nc2c(C)cc(C(=O)NCc3ccccc3)cc2n1Cc1ccc(-c2ccccc2C(=O)O)cc1"
result_type = "EC50 (luminescence inhibition) at 0.25 h"
measurement = "78 µg/mL"

